Structures can show the parent of a compound that is named as a salt.
propertyLabel: melting point (°C)

1. Cc1ccc(C(=O)NC[C@@H]2CCN(CCCC(=O)NS(C)(=O)=O)C[C@H]2O)c2c1OCCCO2 (as salt: hydrochloride)
142
2. CS(=O)(=O)NC(=O)CCCN1CC[C@@H](CNC(=O)c2cc(Cl)cc3c2OCCCO3)[C@H](O)C1
110
3. Nc1cc2c(c(C(=O)NC[C@@H]3CCN(CCCS(N)(=O)=O)C[C@H]3O)c1)OCCCO2 (relative stereo)
186
4. NS(=O)(=O)CCN1CC[C@@H](CNC(=O)c2cc(Cl)cc3c2OCCCO3)[C@H](O)C1
162
